Biological target: Prostaglandin D2 receptor 2 (Homo sapiens, UniProt Q9Y5Y4)
Sequence (Q9Y5Y4 whole entry): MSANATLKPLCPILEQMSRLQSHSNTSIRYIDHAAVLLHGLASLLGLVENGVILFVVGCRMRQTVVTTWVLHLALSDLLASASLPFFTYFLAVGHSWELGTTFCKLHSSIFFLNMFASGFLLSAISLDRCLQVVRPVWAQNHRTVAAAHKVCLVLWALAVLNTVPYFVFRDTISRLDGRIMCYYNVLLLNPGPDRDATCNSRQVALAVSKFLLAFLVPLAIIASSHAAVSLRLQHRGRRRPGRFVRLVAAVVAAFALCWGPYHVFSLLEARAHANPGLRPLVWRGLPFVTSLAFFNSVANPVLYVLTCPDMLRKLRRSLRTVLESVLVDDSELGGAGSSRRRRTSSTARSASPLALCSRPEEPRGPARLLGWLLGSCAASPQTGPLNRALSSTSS
Test: Antagonist activity at human CRTH2 receptor expressed in HEK293 cells assessed as inhibition of PGD2-induced calcium flux after 5 mins by FLIPR assay
Assay type: functional, cell-based
IC50 values by entry

{"Structure notation": "O=C(O)Cn1c2c(c3cc(F)cc(Cl)c31)CN(C(=O)c1cccc3ccccc13)CC2", "Value units": "nM", "IC50": 660}
{"Structure notation": "O=C(O)Cn1c2c(c3cc(F)ccc31)CN(C(=O)Cc1cccc3ccccc13)CC2", "Value units": "nM", "IC50": 70}
{"Structure notation": "CCc1ccc(-c2ccc(C(=O)N3CCc4c(c5ccccc5n4CC(=O)O)C3)cc2)cc1", "Value units": "nM", "IC50": 190}
{"Structure notation": "O=C(O)Cn1c2c(c3cc(F)ccc31)CN(C(=O)c1cccs1)CC2", "Value units": "nM", "IC50": 40}
{"Structure notation": "O=C(O)Cn1c2c(c3cc(F)ccc31)CN(C(=O)c1cccc(Cl)c1)CC2", "Value units": "nM", "IC50": 40}
{"Structure notation": "O=C(O)Cn1c2c(c3cc(F)cc(Cl)c31)CN(C(=O)c1cccc(Cl)c1)CC2", "Value units": "nM", "IC50": 1280}
{"Structure notation": "O=C(O)Cn1c2c(c3cc(C(F)(F)F)ccc31)CN(C(=O)c1ccccc1)CC2", "Value units": "nM", "IC50": 50}
{"Structure notation": "O=C(O)Cn1c2c(c3ccccc31)CN(C(=O)c1cccc3ccccc13)CC2", "Value units": "nM", "IC50": 30}
